assay-system: α4β7 (Homo sapiens, UniProt P13612+P26010)
Sequence (P13612 34-1032): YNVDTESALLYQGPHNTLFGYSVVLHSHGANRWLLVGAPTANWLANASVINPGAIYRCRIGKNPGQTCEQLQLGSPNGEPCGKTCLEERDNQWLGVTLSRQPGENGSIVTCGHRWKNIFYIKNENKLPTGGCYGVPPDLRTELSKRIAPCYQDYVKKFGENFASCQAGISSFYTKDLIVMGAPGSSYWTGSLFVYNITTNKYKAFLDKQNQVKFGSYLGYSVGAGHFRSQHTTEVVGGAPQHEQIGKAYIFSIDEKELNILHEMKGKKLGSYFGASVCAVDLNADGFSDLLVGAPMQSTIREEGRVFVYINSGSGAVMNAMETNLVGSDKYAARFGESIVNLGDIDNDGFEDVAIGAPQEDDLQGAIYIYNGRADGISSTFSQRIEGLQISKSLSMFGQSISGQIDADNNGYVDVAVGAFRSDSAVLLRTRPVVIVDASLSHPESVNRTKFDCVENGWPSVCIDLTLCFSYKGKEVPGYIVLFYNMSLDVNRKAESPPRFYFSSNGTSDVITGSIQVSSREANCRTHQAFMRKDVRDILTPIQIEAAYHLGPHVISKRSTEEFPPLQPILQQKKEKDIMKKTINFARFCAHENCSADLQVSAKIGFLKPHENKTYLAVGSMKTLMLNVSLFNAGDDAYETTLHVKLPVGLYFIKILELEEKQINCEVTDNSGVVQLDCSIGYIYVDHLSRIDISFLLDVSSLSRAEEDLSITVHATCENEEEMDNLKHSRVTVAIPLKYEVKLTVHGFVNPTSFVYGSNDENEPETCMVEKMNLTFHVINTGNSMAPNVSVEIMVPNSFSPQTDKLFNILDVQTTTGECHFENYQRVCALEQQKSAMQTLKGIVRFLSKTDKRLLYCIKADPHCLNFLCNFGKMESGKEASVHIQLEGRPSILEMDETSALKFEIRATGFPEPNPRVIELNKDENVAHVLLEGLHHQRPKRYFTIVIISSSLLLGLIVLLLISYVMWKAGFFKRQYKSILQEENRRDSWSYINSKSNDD
Sequence (P26010 20-798): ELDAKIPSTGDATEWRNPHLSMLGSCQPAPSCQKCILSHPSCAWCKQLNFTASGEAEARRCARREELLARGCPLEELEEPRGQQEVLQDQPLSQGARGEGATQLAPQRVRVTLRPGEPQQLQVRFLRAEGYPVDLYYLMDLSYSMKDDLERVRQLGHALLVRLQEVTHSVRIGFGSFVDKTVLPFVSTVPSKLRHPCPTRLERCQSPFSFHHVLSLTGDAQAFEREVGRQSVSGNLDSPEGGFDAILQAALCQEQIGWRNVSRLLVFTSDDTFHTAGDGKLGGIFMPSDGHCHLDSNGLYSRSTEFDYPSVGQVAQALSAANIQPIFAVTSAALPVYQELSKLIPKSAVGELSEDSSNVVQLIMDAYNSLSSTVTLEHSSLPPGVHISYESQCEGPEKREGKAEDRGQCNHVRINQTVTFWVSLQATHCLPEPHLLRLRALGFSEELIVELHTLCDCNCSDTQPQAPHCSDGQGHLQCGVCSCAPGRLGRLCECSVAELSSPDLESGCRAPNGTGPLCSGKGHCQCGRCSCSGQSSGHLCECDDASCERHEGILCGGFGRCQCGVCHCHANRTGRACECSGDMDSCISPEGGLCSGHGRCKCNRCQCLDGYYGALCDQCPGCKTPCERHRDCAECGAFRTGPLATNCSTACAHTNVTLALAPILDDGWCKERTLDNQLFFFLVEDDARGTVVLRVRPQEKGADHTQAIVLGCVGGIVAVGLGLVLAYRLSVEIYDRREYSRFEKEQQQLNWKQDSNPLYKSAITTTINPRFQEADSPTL
protocol-summary: α4β7-MAdCAM Cell Adhesion Assay (RPMI 8866 human cells)
Type: cell-based
Set-up: host or cells: RPMI 8866 human B lymphoblastoid cells
applied-conditions: Table 3-B, Potency (α4β7); range classes; read-out: α4β7 cell (Hu) IC50
Bridge positions count the residues as written; N and C are the ends. Square brackets hold non-standard residues; d marks the D form. Peptide text beside a SMILES is read from it. * marks the point of attachment. Phe(4-tBu) = CC(C)(C)c1ccc(C[C@H](N)C(=O)O)cc1; 2Nal = N[C@@H](Cc1ccc2ccccc2c1)C(=O)O; NMeR = CN[C@@H](CCCNC(=N)N)C(=O)O; Palmitoyl = CCCCCCCCCCCCCCCC(=O)*; β3hE = N[C@@H](CCC(=O)O)CC(=O)O; Pen = CC(C)(S)[C@H](N)C(=O)O
Reported values of IC50 for individual entries

Here's what some known entries look like.
{"molecule": "CC(=O)N[C@@H]1C(=O)N(C)[C@@H](CCCNC(=N)N)C(=O)N[C@@H](CO)C(=O)N[C@@H](CC(=O)O)C(=O)N[C@@H](C(C)C)C(=O)N[C@@H](CC(C)C)C(=O)N[C@H](C(=O)N[C@@H](Cc2ccc3ccccc3c2)C(=O)N[C@H](CCC(=O)O)C(N)=O)C(C)(C)SSC1(C)C [compound 156] (Ac-[Pen][NMeR]SDVL[Pen][2Nal][dE]-NH2; disulfide 1-7)", "IC50": "100 to 500 nM"}
{"molecule": "CCCCCCCCCCCCCCCC(=O)N[C@@H]1C(=O)N(C)[C@@H](CCCNC(=N)N)C(=O)N[C@@H](CO)C(=O)N[C@@H](CC(=O)O)C(=O)N[C@@H]([C@@H](C)O)C(=O)N[C@@H](CC(C)C)C(=O)N[C@H](C(=O)N[C@@H](Cc2ccc(C(C)(C)C)cc2)C(=O)N[C@@H](CCC(=O)O)CC(=O)N[C@H](CCCCN)C(N)=O)C(C)(C)SSC1(C)C [compound 178] (Palmitoyl-[Pen][NMeR]SDTL[Pen][Phe(4-tBu)][β3hE][dK]-NH2; disulfide 1-7)", "IC50": "1000 to 10000 nM"}
{"molecule": "CC(=O)N[C@@H]1C(=O)N(C)[C@@H](CCCNC(=N)N)C(=O)N[C@@H](CO)C(=O)N[C@@H](CC(=O)O)C(=O)N[C@@H](Cc2ccccc2)C(=O)N[C@@H](CC(C)C)C(=O)N[C@H](C(=O)N[C@@H](Cc2ccc3ccccc3c2)C(=O)N[C@H](CCC(=O)O)C(N)=O)C(C)(C)SSC1(C)C [compound 157] (Ac-[Pen][NMeR]SDFL[Pen][2Nal][dE]-NH2; disulfide 1-7)", "IC50": "1000 to 10000 nM"}
{"molecule": "CC(=O)N[C@@H]1C(=O)N(C)[C@@H](CCCNC(=N)N)C(=O)N[C@@H](CO)C(=O)N[C@@H](CC(=O)O)C(=O)N[C@@H]([C@@H](C)O)C(=O)N[C@@H](CC(C)C)C(=O)N[C@H](C(=O)N[C@@H](Cc2ccc(C(C)(C)C)cc2)C(=O)N[C@@H](CCC(=O)O)CC(=O)N[C@H](CCCCN)C(N)=O)C(C)(C)SSC1(C)C [compound 153] (Ac-[Pen][NMeR]SDTL[Pen][Phe(4-tBu)][β3hE][dK]-NH2; disulfide 1-7)", "IC50": "10 to 25 nM"}

Now examine the next entry.
# lookup: IC50 of CC(=O)N[C@@H]1C(=O)N(C)[C@@H](CCCNC(=N)N)C(=O)N[C@@H](CO)C(=O)N[C@@H](CC(=O)O)C(=O)N[C@@H]([C@@H](C)O)C(=O)N[C@@H](CC(C)C)C(=O)N[C@H](C(=O)N[C@@H](Cc2ccc(C(C)(C)C)cc2)C(=O)O)C(C)(C)SSC1(C)C [compound 151] (Ac-[Pen][NMeR]SDTL[Pen][Phe(4-tBu)]-OH; disulfide 1-7)
50 to 100 nM
